Test: Ratio of drug level in Sprague-Dawley rat brain to plasma at 10 mg/kg, ip
Type: ADME, organism-based
Settings: read-out: BPR
RECORDED ENDPOINT: Kp

1. Cc1c(C(=O)NC2CCN(C(=O)OC(C)(C)C)CC2)nn(-c2ccc(Cl)cc2Cl)c1-c1ccc(Cl)cc1 : < 0.04

Pending molecule:
In plain terms, Cc1c(C(=O)N2CCC(NC(=O)NC(C)(C)C)(c3ccccc3)CC2)nn(-c2ccc(Cl)cc2Cl)c1-c1ccc(Cl)cc1 has a documented Kp of < 0.04

----------
Reported Ki values, Cannabinoid receptor 1 (Homo sapiens).
Field: numeric (nM). Do not append units.

1. Cc1c(C(=O)NC2CCN(C(=O)C3CCCC3)CC2)nn(-c2ccc(Cl)cc2Cl)c1-c1ccc(Cl)cc1 : 9.2
2. CCCOC(=O)N1CCC(NC(=O)c2nn(-c3ccc(Cl)cc3Cl)c(-c3ccc(Cl)cc3)c2C)CC1 : 8.82
3. Cc1c(C(=O)NC2CCN(S(=O)(=O)c3ccccc3)CC2)nn(-c2ccc(Cl)cc2Cl)c1-c1ccc(Cl)cc1 : 43

Pending compound:
In plain terms, Cc1c(C(=O)NC2CCN(S(=O)(=O)CCC(F)(F)F)CC2)nn(-c2ccc(Cl)cc2Cl)c1-c1ccc(Cl)cc1 has a documented Ki of 9.6
